# Test system: Bovine liver catalase (Bos taurus)
# Construct: Bovine liver catalase was also purchased from Sigma-Aldrich; purchased Sigma-Aldrich; host or cells: bovine liver
# Experiment description: Catalase activity (H2O2 disappearance at 240 nm) as a function of thiol concentration
# Format: biochemical
# Condition context: iron 55–145 nM, + DMPO; read-out: relative IC50 (CAT activity)
Reported endpoint: IC50

{"columns": ["Compound", "Value"],
 "data": [
  ["N[C@@H](CS)C(=O)O [Cys, cysteine]", "> 700 µM"]
]}

---

# Test system: Bovine liver catalase (Bos taurus)
# Construct: Bovine liver catalase was also purchased from Sigma-Aldrich; purchased Sigma-Aldrich; host or cells: bovine liver
# Experiment description: Catalase activity (H2O2 disappearance at 240 nm) as a function of thiol concentration
# Format: biochemical
# Condition context: iron 55–145 nM, −DTPA (pathological conditions), 50 mM phosphate buffer pH 7.4, 25 °C, n=3±s.d.; read-out: relative IC50 (CAT activity)
# Protocol: CAT activity was measured on an Uvikon 941 spectrophotometer equipped with a temperature controlled water bath (±1 °C) by following the disappearance of H2O2 at 240 nm over 30–120 s at 25 °C. Catalase activity was calculated based on the rate of decomposition of hydrogen peroxide, which is proportional to the reduction of the absorbance at 240 nm. […]
pIC50: −log10 of the molar value.
Reported endpoint: pIC50

{"columns": ["Compound", "Test system", "Value"],
 "data": [
  ["NC(CCS)C(=O)O (stereo not drawn) [HCys, homocysteine]", "Bovine liver catalase (Bos taurus)", 4.43],
  ["N[C@@H](CCC(=O)N[C@@H](CS)C(=O)NCC(=O)O)C(=O)O [GSH, glutathione]", "Bovine liver catalase (Bos taurus)", 4.26],
  ["N[C@@H](CS)C(=O)O [Cys, cysteine]", "Bovine liver catalase (Bos taurus)", 5.46]
]}

---

# Test system: Bovine liver catalase (Bos taurus, UniProt P00432)
# Construct: Bovine liver catalase was also purchased from Sigma-Aldrich; purchased Sigma-Aldrich; host or cells: bovine liver
# Sequence (P00432 2-527 limits assumed): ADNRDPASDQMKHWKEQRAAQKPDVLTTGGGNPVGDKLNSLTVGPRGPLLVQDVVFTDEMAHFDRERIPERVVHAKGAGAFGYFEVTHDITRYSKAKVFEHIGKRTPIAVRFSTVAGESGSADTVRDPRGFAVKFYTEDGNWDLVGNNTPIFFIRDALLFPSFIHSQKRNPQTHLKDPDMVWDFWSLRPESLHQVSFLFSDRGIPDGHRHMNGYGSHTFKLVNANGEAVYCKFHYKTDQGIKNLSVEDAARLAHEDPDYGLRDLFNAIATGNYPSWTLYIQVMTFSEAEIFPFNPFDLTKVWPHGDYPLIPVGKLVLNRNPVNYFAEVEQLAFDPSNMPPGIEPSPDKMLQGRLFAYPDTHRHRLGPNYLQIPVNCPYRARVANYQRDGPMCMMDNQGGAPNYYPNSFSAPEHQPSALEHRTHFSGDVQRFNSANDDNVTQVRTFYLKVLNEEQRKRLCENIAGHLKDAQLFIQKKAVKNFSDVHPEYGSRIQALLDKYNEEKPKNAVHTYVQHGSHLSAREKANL
# Experiment description: Catalase activity (H2O2 disappearance at 240 nm) as a function of thiol concentration
# Assay type: biochemical
# Condition context: +1 mM DTPA (physiological conditions), 50 mM phosphate buffer pH 7.4, 25 °C, n=3±s.d.; read-out: relative IC50 (CAT activity)

{"columns": ["Compound", "Test system", "IC50, µM"],
 "data": [
  ["NC(CCS)C(=O)O (stereo not drawn)", "Bovine liver catalase (Bos taurus, UniProt P00432)", 1440],
  ["N[C@@H](CCC(=O)N[C@@H](CS)C(=O)NCC(=O)O)C(=O)O", "Bovine liver catalase (Bos taurus, UniProt P00432)", 21200],
  ["N[C@@H](CS)C(=O)O", "Bovine liver catalase (Bos taurus, UniProt P00432)", 590]
]}

---

# Test system: Bovine liver catalase (Bos taurus, UniProt P00432)
# Construct: Bovine liver catalase was also purchased from Sigma-Aldrich; purchased Sigma-Aldrich; host or cells: bovine liver
# Experiment description: Catalase activity (H2O2 disappearance at 240 nm) as a function of thiol concentration
# Format: biochemical
# Condition context: iron 55–145 nM, + 0.2 mM DTPA; read-out: relative IC50 (CAT activity)
# Procedure: CAT activity was measured on an Uvikon 941 spectrophotometer equipped with a temperature controlled water bath (±1 °C) by following the disappearance of H2O2 at 240 nm over 30–120 s at 25 °C. Catalase activity was calculated based on the rate of decomposition of hydrogen peroxide, which is proportional to the reduction of the absorbance at 240 nm. […]
Reported endpoint: IC50 (µM)

{"columns": ["Smiles record", "Reported endpoint", "Quantity unit", "Value"],
 "data": [
  ["N[C@@H](CS)C(=O)O", "IC50", "µM", 69]
]}
